Reference for the values: paper PMC9916616

- Tested on: Danio rerio embryos and larvae
- PROTOCOL NOTES: Fish embryo toxicity test (FET)
- Format: in vivo
- TEST CONDITIONS: 5 µg/mL and 10 µg/mL, within 96 h of observation
QUANTITY: Toxicity to zebrafish embryos and larvae

[[record]]
compound = "NC(=S)N/N=C/c1ccc(OC(=O)/C=C2\\SC(=O)NC2=O)cc1"
result = "not toxic"

[[record]]
compound = "NC(=S)N/N=C/c1ccc(OC(=O)CC2SC(=O)NC2=O)cc1 (stereo not shown)"
result = "not toxic"

[[record]]
compound = "O=C(CC1SC(=O)NC1=O)Oc1ccc(/C=N/NC(=O)c2ccncc2)cc1 (stereo not shown)"
result = "not toxic"

[[record]]
compound = "NC(=S)N/N=C/c1ccc(OC(=O)CC2SC(=O)NC2=O)c(Cl)c1 (stereo not shown)"
result = "not toxic"

